Biological target: rat α7 nAChRs (Rattus norvegicus, UniProt Q05941)
Construct: expressed in transfected cells; host or cells: Xenopus laevis oocytes injected with subunit cRNA
Sequence (Q05941 23-502): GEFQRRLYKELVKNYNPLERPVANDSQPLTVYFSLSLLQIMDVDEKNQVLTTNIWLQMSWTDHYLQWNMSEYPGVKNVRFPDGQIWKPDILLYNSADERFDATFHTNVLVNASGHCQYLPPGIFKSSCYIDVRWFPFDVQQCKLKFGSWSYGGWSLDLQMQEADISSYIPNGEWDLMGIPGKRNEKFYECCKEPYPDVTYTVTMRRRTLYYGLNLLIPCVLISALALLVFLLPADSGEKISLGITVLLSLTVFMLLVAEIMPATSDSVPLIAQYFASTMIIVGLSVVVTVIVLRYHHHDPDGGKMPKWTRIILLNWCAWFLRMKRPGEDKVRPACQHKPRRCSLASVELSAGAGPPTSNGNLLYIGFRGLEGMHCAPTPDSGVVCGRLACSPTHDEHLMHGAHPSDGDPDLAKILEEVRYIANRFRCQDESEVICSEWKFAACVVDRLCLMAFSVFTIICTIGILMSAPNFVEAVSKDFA
Experiment: Voltage-clamp recording in Xenopus oocytes expressing rat α7 nAChRs
Format: cell-based
Conditions: after 5 minutes wash following application at increasing concentrations; read-out: IC50 estimated for recovery data
Experimental: For recombinant nAChR studies, mature (>9 cm) female Xenopus laevis African frogs (Nasco, Ft. Atkinson, Wis.) were used as a source of oocytes. […] Experiments were conducted using OpusXpress 6000A (Molecular Devices, Union City Calif.). […] Means and standard errors (SEM) were calculated from the normalized responses of at least four oocytes for each experimental concentration. […]
Outcome measure: pIC50
Give bare numbers, as −log10 of the molar value.

Look up pIC50: c1ccc(Cc2ccc[n+](CCCCCc3cc(CCCCC[n+]4cccc(Cc5ccccc5)c4)c(CCCCC[n+]4cccc(Cc5ccccc5)c4)cc3CCCCC[n+]3cccc(Cc4ccccc4)c3)c2)cc1 [tkP3BzPB]
5.72
